molecular target: Smo (Homo sapiens); assay: Bodipy-Cyclopamine Binding Assay (confirmation assay), Hek293-SMO cells
pIC50: −log10 of the molar value.
endpoint-name: pIC50

CCOC(=O)Nc1nc2c(s1)CN(c1cc(-c3ncc(C)cc3C)c(Cl)cn1)CC2 ... 6.31
Cc1cnc(-c2cc(N3CCc4nc(NC(=O)C5CC5)sc4C3)ncc2Cl)c(C)c1 ... 7.15
Cc1cnc(-c2cc(N3CCc4nc(NC(=O)NC(C)C)sc4C3)ncc2Cl)c(C)c1 ... 6.70

[I] Cc1cnc(-c2cc(N3CCc4nc(N5CCC(O)C5)ncc4C3=O)ncc2Cl)c(C)c1 (centres unmarked)
[II] CNC(=O)c1cn2c(n1)CN(c1cc(-c3ncc(C)cc3C)c(Cl)cn1)CC2
[III] Cc1cnc(-c2cc(N3CCc4nc(NC(=O)C(C)C)sc4C3)ncc2Cl)c(C)c1
[IV] Cc1cnc(-c2cc(N3CCc4nc(NC(=O)CCN5CCOCC5)sc4C3)ncc2Cl)c(C)c1
[V] CSc1ncc2c(n1)C(C)CN(c1cc(-c3ncc(C)cc3C)c(Cl)cn1)C2 (centres unmarked)
Put these in order: smallest pIC50 first, largest last. Enter labels, ranked according to the request.
II, V, I, IV, III
(II: 5.90, V: 6.24, I: 6.57, IV: 6.87, III: 7.23)

----------
molecular target: Smo (Homo sapiens, UniProt Q99835); test: Bodipy-Cyclopamine Binding Assay (confirmation assay), Hek293-SMO cells
Sequence (Q99835 28-787): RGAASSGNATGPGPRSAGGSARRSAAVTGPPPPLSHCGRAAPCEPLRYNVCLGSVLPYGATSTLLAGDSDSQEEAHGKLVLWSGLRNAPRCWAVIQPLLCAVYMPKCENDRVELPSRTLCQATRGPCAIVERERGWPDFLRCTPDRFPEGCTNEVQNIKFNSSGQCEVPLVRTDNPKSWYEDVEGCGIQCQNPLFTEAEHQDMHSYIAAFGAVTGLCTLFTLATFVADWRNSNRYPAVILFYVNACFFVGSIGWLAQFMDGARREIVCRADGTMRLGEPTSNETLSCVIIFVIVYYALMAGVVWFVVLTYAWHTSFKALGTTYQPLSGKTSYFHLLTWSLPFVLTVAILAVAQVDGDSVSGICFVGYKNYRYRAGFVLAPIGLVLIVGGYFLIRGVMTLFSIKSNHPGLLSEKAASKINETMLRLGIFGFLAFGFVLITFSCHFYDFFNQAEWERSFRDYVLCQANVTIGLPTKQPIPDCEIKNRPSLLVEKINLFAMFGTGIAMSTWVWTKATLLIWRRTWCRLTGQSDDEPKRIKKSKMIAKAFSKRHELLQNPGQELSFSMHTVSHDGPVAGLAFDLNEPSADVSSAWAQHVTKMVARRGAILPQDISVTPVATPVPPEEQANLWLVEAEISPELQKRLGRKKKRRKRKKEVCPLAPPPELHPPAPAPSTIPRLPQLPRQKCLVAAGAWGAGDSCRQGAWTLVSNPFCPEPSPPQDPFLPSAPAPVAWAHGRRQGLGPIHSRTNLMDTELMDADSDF
endpoint-name: IC50 (nM)

Please review the entries below; each comes with its answer.
Cc1cnc(-c2cc(N3CCc4nc(NC(C)C)ncc4C3)ncc2Cl)c(C)c1 ... 18
Cc1cnc(-c2cc(N3CCc4nc(N5CC(O)C5)ncc4C3)ncc2Cl)c(C)c1 ... 283

[a] CC(=O)Nc1nc2c(s1)CN(c1cc(-c3ncc(C)cc3C)c(Cl)cn1)CC2
[b] Cc1cnc(-c2cc(N3Cc4cnc(N5CC(C)NC(C)C5)nc4C(C)(C)C3)ncc2Cl)c(C)c1 (stereo not drawn)
[c] Cc1cnc(-c2cc(N3CCc4nc(N5CC(C)NC(C)C5)ncc4C3=O)ncc2Cl)c(C)c1 (stereo not drawn)
Rank entries according to their IC50, from the largest number down. Enter labels, ranked according to the request.
a, c, b

[1] COCC(=O)Nc1nc2c(s1)CN(c1cc(-c3ncc(C)cc3C)c(Cl)cn1)CC2
[2] CCNc1nc2c(s1)CN(c1cc(-c3ncc(C)cc3C)c(Cl)cn1)CC2
I'd appreciate it if you could identify which of 1 and 2 has the greater IC50. Answer format: the label of the selected item.
1

----------
target: Smo (Homo sapiens, UniProt Q99835); assay: Bodipy-Cyclopamine Binding Assay (confirmation assay), Hek293-SMO cells
endpoint-name: IC50 (nM)

Cc1cnc(-c2cc(N3CCc4nc(-n5cccn5)ncc4C3)ncc2Cl)c(C)c1 ... 48.8
Cc1cnc(-c2cc(N3CCc4nc(NC(C)(C)C)ncc4C3)ncc2Cl)c(C)c1 ... 14.1
Cc1cnc(-c2cc(N3CCc4nc(Nc5ccccc5)sc4C3)ncc2Cl)c(C)c1 ... 330
CCOc1ncc2c(n1)CCN(c1cc(-c3ncc(C)cc3C)c(Cl)cn1)C2 ... 207

[P] CCC(=O)Nc1nc2c(s1)CN(c1cc(-c3ncc(C)cc3C)c(Cl)cn1)CC2
[Q] Cc1cnc(-c2cc(N3CCc4nc(S(C)(=O)=O)ncc4C3=O)ncc2Cl)c(C)c1
I'd appreciate it if you could identify which of P and Q has the greater IC50. Answer format: the label of the selected item.
Q

[1] Cc1cccnc1-c1cc(N2CCc3nc(NC4CC4)ncc3C2)ncc1Cl
[2] Cc1cnc(-c2cc(N3CC(C)c4nc(N5CCC(O)CC5)ncc4C3=O)ncc2Cl)c(C)c1 (centres unmarked)
[3] Cc1cnc(-c2cc(N3CCn4cc(C(=O)N5CC(C)NC(C)C5)nc4C3)ncc2Cl)c(C)c1 (centres unmarked)
[4] Clc1cnc(N2CCc3nc(NC4CC4)ncc3C2)cc1-c1cnccn1
Rank entries according to their IC50, from the largest number down. Enter labels, ranked according to the request.
3, 4, 2, 1
(3: 656 nM, 4: 235 nM, 2: 125 nM, 1: 82.9 nM)

[I] Cc1cnc(-c2cc(N3CCc4nc(OCC5CC5)ncc4C3)ncc2Cl)c(C)c1
[II] Cc1cnc(-c2cc(N3CCc4nc(S(C)(=O)=O)ncc4C3)ncc2Cl)c(C)c1
[III] COC1CCN(c2ncc3c(n2)CCN(c2cc(-c4ncc(C)cc4C)c(Cl)cn2)C3)CC1
Put these in order: smallest IC50 first, largest last. Enter labels, ranked according to the request.
I, III, II
(I: 84 nM, III: 163 nM, II: 500 nM)

[P] CSc1ncc2c(n1)CCN(c1cc(-c3ncc(C)cc3C)c(Cl)cn1)C2
[Q] Cc1cnc(-c2cc(N3CCn4cc(CN5CCOCC5)nc4C3)ncc2Cl)c(C)c1
Of P versus Q , which is the one with smaller reported IC50? Answer format: the label of the selected item.
P
(P: 87.6 nM, Q: 676 nM)

----------
target: Smo (Homo sapiens); experiment: Bodipy-Cyclopamine Binding Assay (confirmation assay), Hek293-SMO cells
endpoint-name: IC50 (µM)

Please review the entries below; each comes with its answer.
CNc1ncc2c(n1)CCN(c1cc(-c3ncc(C)cc3C)c(Cl)cn1)C2 ... 0.232
Cc1cnc(-c2cc(N3CCc4nc(N5CCCC5)ncc4C3)ncc2Cl)c(C)c1 ... 0.0249
Clc1cnc(N2CCc3nc(NC4CC4)ncc3C2)cc1-c1nccs1 ... 0.169
Cc1cnc(-c2cc(N3CCn4cc(C(=O)N(C)CCO)nc4C3)ncc2Cl)c(C)c1 ... 2.01
Cc1cnc(-c2cc(N3CCc4nc(N5CC(C)NC(C)C5)ncc4C3)ncc2Cl)c(C)c1 (stereo not drawn) ... 0.0111

[A] Cc1cnc(-c2cc(N3CCc4nc(NCC5CC5)sc4C3)ncc2Cl)c(C)c1
[B] Cc1cnc(-c2cc(N3Cc4cnc(NC5CC5)nc4C(C)C3)ncc2Cl)c(C)c1 (stereo not drawn)
[C] Clc1cnc(N2CCc3nc(NC4CC4)ncc3C2)cc1-c1ccc2ccccc2n1
Put these in order: smallest IC50 first, largest last. Enter labels, ranked according to the request.
A, C, B
(A: 0.0548 µM, C: 0.113 µM, B: 0.257 µM)

[a] CCOc1nc2c(s1)CN(c1cc(-c3ncc(C)cc3C)c(Cl)cn1)CC2
[b] Cc1cnc(-c2cc(N3CCc4nc(N)sc4C3)ncc2Cl)c(C)c1
[c] Cc1cnc(-c2cc(N3CCc4nc(NCC5CC5)ncc4C3)ncc2Cl)c(C)c1
[d] Cc1cnc(-c2cc(N3CCc4nc(N5CCCC5)sc4C3)ncc2Cl)c(C)c1
[e] CCNc1ncc2c(n1)CCN(c1cc(-c3ncc(C)cc3C)c(Cl)cn1)C2
Rank entries according to their IC50, from the largest number down. Enter labels, ranked according to the request.
b, d, a, c, e

[I] Cc1cnc(-c2cc(N3CC(C)(C)c4nc(N5CCC(O)CC5)ncc4C3=O)ncc2Cl)c(C)c1
[II] Cc1cnc(-c2cc(N3CCc4nc(N(C)S(C)(=O)=O)ncc4C3)ncc2Cl)c(C)c1
Of I versus II , which is the one with smaller reported IC50? Answer format: the label of the selected item.
II

[a] Cc1cnc(-c2cc(N3Cc4cnc(N5CCCC5)nc4C(C)(C)C3)ncc2Cl)c(C)c1
[b] Cc1cnc(-c2cc(N3CCn4cc(C(=O)N5CCCC5)nc4C3)ncc2Cl)c(C)c1
[c] Cc1cnc(-c2cc(N3CCn4cc(C(=O)Nc5ccccc5F)nc4C3)ncc2Cl)c(C)c1
[d] Cc1cnc(-c2cc(N3CCc4nc(NC(=O)NC(C)C)ncc4C3)ncc2Cl)c(C)c1
[e] Cc1cnc(-c2cc(N3CCc4nc(NC5CC5)ncc4C3)ncc2Cl)c(C)c1
Rank entries according to their IC50, from the largest number down. Enter labels, ranked according to the request.
d, c, b, a, e

----------
molecular target: Smo (Homo sapiens, UniProt Q99835); experiment: Bodipy-Cyclopamine Binding Assay (confirmation assay), Hek293-SMO cells
pIC50: −log10 of the molar value.
endpoint-name: pIC50

[P] Cc1cnc(-c2cc(N3CCc4nc(Nc5ccccc5)ncc4C3)ncc2Cl)c(C)c1
[Q] CCOC(=O)Nc1ncc2c(n1)CCN(c1cc(-c3ncc(C)cc3C)c(Cl)cn1)C2
Of P versus Q , which is the one with smaller reported pIC50? Answer format: the label of the selected item.
Q
(Q: 6.39, P: 7.29)

----------
biological target: Smo (Homo sapiens); test: Bodipy-Cyclopamine Binding Assay (confirmation assay), Hek293-SMO cells
endpoint-name: IC50 (nM)

Please review the entries below; each comes with its answer.
Cc1cnc(-c2cc(N3Cc4cnc(N5CC(C)NC(C)C5)nc4C(C)C3)ncc2Cl)c(C)c1 (centres unmarked) ... 147
Cc1cnc(-c2cc(N3CCc4nc(N(C)CCO)ncc4C3)ncc2Cl)c(C)c1 ... 22.9
Cc1cnc(-c2cc(N3CCc4nc(NC(=O)C(C)(C)C)ncc4C3)ncc2Cl)c(C)c1 ... 104
Cc1cnc(-c2cc(N3CCc4nc(N5CC(C)NC(C)C5)sc4C3)ncc2Cl)c(C)c1 (centres unmarked) ... 69.7
Cc1cnc(-c2cc(N3CCc4nc(NC(=O)CCN(C)C)sc4C3)ncc2Cl)c(C)c1 ... 173

[A] CCNC(=O)Nc1nc2c(s1)CN(c1cc(-c3ncc(C)cc3C)c(Cl)cn1)CC2
[B] Cc1cnc(-c2cc(N3CCc4nc(NCC5CC5)ncc4C3=O)ncc2Cl)c(C)c1
[C] CCOC(=O)c1cn2c(n1)CN(c1cc(-c3ncc(C)cc3C)c(Cl)cn1)CC2
Put these in order: smallest IC50 first, largest last. Enter labels, ranked according to the request.
B, A, C

[I] CSc1ncc2c(n1)C(C)(C)CN(c1cc(-c3ncc(C)cc3C)c(Cl)cn1)C2
[II] Cc1cnc(-c2cc(N3CCc4nc(N5CCC(O)C5)ncc4C3)ncc2Cl)c(C)c1 (centres unmarked)
[III] Cc1cnc(-c2cc(N3CCc4nc(-n5cccn5)sc4C3)ncc2Cl)c(C)c1
[IV] Cc1cnc(-c2cc(N3CCc4nc(N5CCOCC5)ncc4C3)ncc2Cl)c(C)c1
[V] Cc1cnc(-c2cc(N3CCc4nc(NC5CC5)ncc4C3=O)ncc2Cl)c(C)c1
Put these in order: smallest IC50 first, largest last. Enter labels, ranked according to the request.
V, IV, II, I, III
(V: 24.8 nM, IV: 48.7 nM, II: 85.1 nM, I: 188 nM, III: 565 nM)

[A] Cc1cnc(-c2cc(N3CCc4nc(OC(C)C)ncc4C3)ncc2Cl)c(C)c1
[B] Cc1cnc(-c2cc(N3CCc4nc(N5CC(C)OC(C)C5)sc4C3)ncc2Cl)c(C)c1 (centres unmarked)
Of A versus B , which is the one with smaller reported IC50? Answer format: the label of the selected item.
A

[1] Cc1cnc(-c2cc(N3CCc4nc(OC5CCC5)sc4C3)ncc2Cl)c(C)c1
[2] CSc1ncc2c(n1)CCN(c1cc(-c3ncc(C)cc3C)c(Cl)cn1)C2=O
[3] Cc1cnc(-c2cc(N3CCn4cc(C(=O)OC(C)C)nc4C3)ncc2Cl)c(C)c1
[4] Cc1cnc(-c2cc(N3CCn4cc(C(=O)N5CCOCC5)nc4C3)ncc2Cl)c(C)c1
Rank entries according to their IC50, from the largest number down. Enter labels, ranked according to the request.
4, 3, 2, 1
(4: 1150 nM, 3: 589 nM, 2: 169 nM, 1: 88.3 nM)

// provenance: patent US9695178B2
